Assay: Caco-2 Permeability Assay
Assay type: in vitro ADME
Conditions: human, Caco-2, test compound 3 μM
Recorded Metric: Papp at 2 h, 3 µM (×10⁻⁶ cm/s)
The reply should be a number in ×10⁻⁶ cm/s, with the unit left off.

Reference set, count: 5
Record CCCn1cc(-c2cnc(-n3cnc4cc(C#N)cnc43)cc2N[C@@H](C)CO)nn1 [Example 53] . Reported Papp at 2 h, 3 µM: 26.7

Record CC(C)Nc1cc(-n2ncc3cc(C#N)cnc32)ncc1-c1cc([C@@H]2COC(C)(C)O2)no1 [Example 420] . Reported Papp at 2 h, 3 µM: 43.8

Record N#Cc1cnc2c(cnn2-c2cc(NC3CC3)c(-c3cn(CCO)nn3)cn2)c1 [Example 14] . Reported Papp at 2 h, 3 µM: 4.1

Record CC(C)Nc1cc(-n2ncc3cc(C#N)cnc32)ncc1-n1cc(CCC(C)(C)OC(=O)C2CC2)nn1 [Example 382] . Reported Papp at 2 h, 3 µM: 24.8

Record CC(C)Nc1cc(-n2ncc3cc(C#N)cnc32)ncc1-n1cc(C2CCN(S(C)(=O)=O)CC2)nn1 [Example 361] . Reported Papp at 2 h, 3 µM: 5.6

---
Record CCCn1cc(-c2cnc(-n3ncc4cc(C#N)cnc43)cc2N[C@@H](C)CO)nn1 [Example 52] . Reported Papp at 2 h, 3 µM: 3.4

Record CC(O)Cc1cn(-c2cnc(-n3ncc4cc(C#N)cnc43)cc2NCC(C)(C)O)nn1 (centres unmarked) [Example 264] . Reported Papp at 2 h, 3 µM: 22.5

###

The next entries give measured IC50 for IRAK4 (Homo sapiens (Human), UniProt Q9NWZ3).
The reply should be a number in nM, with the unit left off.

// compound CC(C)Nc1cc(-n2ccc3cncnc32)ncc1-c1cn([C@@H]2CCNC[C@H]2O)nn1 , assay IRAK4 (Homo sapiens (Human), UniProt Q9NWZ3), IC50 value: 3

// compound CC(C)Nc1cc(-n2ncc3cc(C#N)cnc32)ncc1-c1cn([C@@H]2CCN(C(=O)C(C)(C)C)C[C@H]2O)nn1 (single isomer, unassigned) [Example 200] , assay IRAK4 (Homo sapiens (Human), UniProt Q9NWZ3), IC50 value: 5

// compound CC(C)Nc1cc(-n2ncc3cc(C#N)cnc32)ncc1-c1cn([C@H]2CCNC[C@H]2O)nn1 , assay IRAK4 (Homo sapiens (Human), UniProt Q9NWZ3), IC50 value: 13

---
// compound CCC(C)(O)Cn1cc(-c2cnc(-n3cnc4cc(C#N)cnc43)cc2NC(C)C)nn1 (single isomer, unassigned) [Example 94] , assay IRAK4 (Homo sapiens (Human), UniProt Q9NWZ3), IC50 value: 21

###

Target: UniProt:Q9NWZ3
Response field class: enum, chosen by comparing IC50 against low: < 5 nM; moderate: ≥ 5 nM and < 10 nM; high: ≥ 10 nM

State the class of the compound shown: CC(C)Nc1cc(-n2ncc3cc(C#N)cnc32)ncc1-c1cn([C@H]2CCN(C(=O)OC(C)(C)C)C[C@H]2O)nn1
high

State the class of the compound shown: CC(C)Nc1cc(-n2ncc3cc(C#N)cnc32)ncc1-n1cc(C2CCN(C(C)C)CC2)nn1
moderate

State the class of the compound shown: CC(C)Nc1cc(-n2ncc3cc(C#N)cnc32)ncc1-n1cc(CCCO)nn1
high
